Reference source: BindingDB's records for doi:10.1021/jm9905054

Assay: 50% inhibitory concentration against phosphodiesterase 5 (PDE5) from porcine platelets
pIC50: −log10 of the molar value.
Please note: satisfied applies when pIC50 is 9 or greater, and not satisfied applies otherwise.

Sample answers from the record:
(Q) Identify whether the reported pIC50 of the following molecule is 9 or greater: COc1ccc(CNc2nnc(N3CCSCC3)c3ccc(C#N)cc23)cc1Cl
(A) satisfied

(Q) Kindly determine if pIC50 recorded for COc1ccc(CNc2nnc(NCc3ccncc3)c3ccc(C#N)cc23)cc1Cl is above or exactly 9.
(A) not satisfied

(Q) Is pIC50 for COc1ccc(CNc2nnc(NCc3ccccn3)c3ccc(C#N)cc23)cc1Cl at or above 9?
(A) not satisfied

(Q) Given the entry COc1ccc(CNc2nnc(N3CC=CCC3)c3ccc(C#N)cc23)cc1Cl , answer whether its pIC50 meets or surpasses 9.
(A) not satisfied

Further cases:
(Q) # bool: pIC50 of COc1ccc(CNc2nnc(N3CCC(C(N)=O)CC3)c3ccc(C#N)cc23)cc1Cl >= 9
(A) satisfied

(Q) Could you please find out whether COc1ccc(CNc2nnc(N3CCC(O)CC3)c3ccc(C(=O)O)cc23)cc1Cl has pIC50 that meets 9 or exceeds it?
(A) not satisfied

(Q) Hi team, for COc1ccc(CNc2nnc(N3CCC(O)CC3)c3ccc(Cl)cc23)cc1Cl , is the recorded pIC50 at or above 9?
(A) not satisfied

(Q) # bool: pIC50 of COc1ccc(CNc2nnc(N3CCN(c4ccccn4)CC3)c3ccc(C#N)cc23)cc1Cl >= 9
(A) not satisfied

(Q) Please indicate if the recorded pIC50 for COc1ccc(CNc2nnc(N[C@H]3CC[C@H](O)CC3)c3ccc(C#N)cc23)cc1Cl meets or exceeds 9.
(A) not satisfied

(Q) hey, is pIC50 for this one >= 9? COc1ccc(CNc2nnc(N3CCC(NS(C)(=O)=O)CC3)c3ccc(C#N)cc23)cc1Cl
(A) not satisfied

(Q) Dear colleague, could you confirm whether COc1ccc(CNc2nnc(N3CCN(c4ncccn4)CC3)c3ccc(C#N)cc23)cc1Cl has pIC50 at or above 9?
(A) not satisfied

---

Assay: 50% inhibitory concentration against phosphodiesterase 5 (PDE5) from porcine platelets
Exercise: state measured pIC50 for each of the molecules provided.
Numbers only, as −log10 of the molar value.

Some solved entries appear below for comparison.
pIC50 reported for this molecule COc1ccc(CNc2nnc(N3CCC(C)(O)CC3)c3ccc(C#N)cc23)cc1Cl : 9.15

Reported pIC50 for COc1ccc(CNc2nnc(N3CCC(O)CC3)c3cc(Cl)c(Cl)cc23)cc1Cl was 9.07

Now for the molecule whose pIC50 we want.
Summary for this molecule, COc1ccc(CNc2nnc(N3CC[S+]([O-])CC3)c3ccc(C#N)cc23)cc1Cl : pIC50 is 9.15

---

For each entry below, report its IC50 value.
Assay: 50% inhibitory concentration against phosphodiesterase 5 (PDE5) from porcine platelets
One number for each entry, in nM.

Entry under test: COc1ccc(CNc2nnc(N3CCC(OC)CC3)c3ccc(C#N)cc23)cc1Cl . Its IC50 was 1.1

For each of the compounds below, state IC50.
1. COc1ccc(CNc2nnc(N3CCN(C)CC3)c3ccc(C#N)cc23)cc1Cl
2. COc1ccc(CNc2nnc(N3CCCCC3)c3ccc(C#N)cc23)cc1Cl
3. COc1ccc(CNc2nnc(N3CCC(CCO)CC3)c3ccc(C#N)cc23)cc1Cl
4. COc1ccc(CNc2nnc(N3CCN(CCO)CC3)c3ccc(C#N)cc23)cc1Cl
5. COc1ccc(CNc2nnc(-n3ccnc3)c3ccc(C#N)cc23)cc1Cl

(A)
1. 0.95
2. 0.55
3. 0.7
4. 1.7
5. 1.5

I have 5 compounds here; please give me IC50 for each one.
1. COc1ccc(CNc2nnc(N3CCCC(O)C3)c3ccc(C#N)cc23)cc1Cl (stereo unspecified)
2. COc1ccc(CNc2nnc(N3CCNCC3)c3ccc(C#N)cc23)cc1Cl
3. COc1ccc(CNc2nnc(N3CCC(CO)CC3)c3ccc(C#N)cc23)cc1Cl
4. COc1ccc(CNc2nnc(N3CCS(=O)(=O)CC3)c3ccc(C#N)cc23)cc1Cl
5. COc1ccc(CNc2nnc(N3CCC(O)CC3)c3ccc(C(F)(F)F)cc23)cc1Cl

(A)
1: 1.2; 2: 1.2; 3: 0.93; 4: 0.79; 5: 0.73
